- Organism: Homo sapiens
- PROTOCOL_DETAILS: Selectivity ratio of Ka for human recombinant DcpS to Ka for eIF4E
RESULT_TYPE: Ratio
Could you respond with only the numeric value?

The reported value for "CO[C@@H]1[C@H](O)[C@@H](COP(=O)([O-])OP(=O)([O-])NP(=O)([O-])OC[C@H]2O[C@@H](n3cnc4c(=O)[nH]c(N)nc43)[C@H](O)[C@@H]2O)O[C@H]1n1c[n+](C)c2c(=O)[nH]c(N)nc21.[Na+].[Na+]" in terms of Ratio is 1.2

Reported Ratio ( "C[n+]1cn([C@@H]2O[C@H](COP(=O)([O-])NP(=O)(O)OP(=O)(O)OC[C@H]3O[C@@H](n4cnc5c(=O)[nH]c(N)nc54)[C@H](O)[C@@H]3O)[C@@H](O)[C@H]2O)c2nc(N)[nH]c(=O)c21.N.N" ) = 15

Let's switch to this compound now.
The reported value for "C[n+]1cn([C@@H]2O[C@H](COP(=O)([O-])NP(=O)([O-])OP(=O)([O-])OP(=O)([O-])OC[C@H]3O[C@@H](n4cnc5c(=O)[nH]c(N)nc54)[C@H](O)[C@@H]3O)[C@@H](O)[C@H]2O)c2nc(N)[nH]c(=O)c21.[Na+].[Na+].[Na+]" in terms of Ratio is 1.4
